The reported measurements were obtained from patent US8008488B2.

Selectivity D3 vs. D2L* overview
target or test system: human dopamine D2L receptors (long isoform) (Homo sapiens, UniProt P14416)
Construct: expressed in transfected cells
Sequence (P14416 whole entry, canonical isoform): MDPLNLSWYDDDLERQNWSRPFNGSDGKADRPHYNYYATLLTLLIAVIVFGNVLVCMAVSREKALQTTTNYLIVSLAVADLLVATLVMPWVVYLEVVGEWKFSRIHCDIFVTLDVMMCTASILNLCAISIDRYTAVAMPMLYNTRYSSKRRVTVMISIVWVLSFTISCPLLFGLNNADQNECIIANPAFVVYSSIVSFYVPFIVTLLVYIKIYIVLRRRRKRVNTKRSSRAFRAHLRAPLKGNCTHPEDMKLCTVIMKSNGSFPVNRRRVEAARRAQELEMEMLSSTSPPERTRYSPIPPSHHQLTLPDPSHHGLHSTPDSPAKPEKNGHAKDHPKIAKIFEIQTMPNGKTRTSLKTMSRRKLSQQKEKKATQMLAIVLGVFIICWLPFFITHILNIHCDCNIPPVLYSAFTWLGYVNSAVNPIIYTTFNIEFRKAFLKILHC
method summary: Dopamine D2L receptor binding, displacement of [125I]-iodospiperone
condition details: *Ki(D2L)/Ki(D3), HEK-293 membranes, 0.01 nM [125I]-iodospiperone
value type: Selectivity D3 vs. D2L*

# compound, value type, quantitative readout
data = [
    ("CC(C)c1ccn(CCCCN2CCN(c3cc(C(F)(F)F)nc(C(C)(C)C)n3)CC2)c(=O)n1", "Selectivity D3 vs. D2L*", 58),
    ("CCCc1cc(N2CCN(CCCCn3cc(C(F)(F)F)c(=O)[nH]c3=O)CC2)nc(C(C)(C)C)n1", "Selectivity D3 vs. D2L*", 134),
    ("O=c1nc(-c2ccccc2)ccn1CCCCN1CCN(c2cccc(Cl)c2Cl)CC1", "Selectivity D3 vs. D2L*", 94),
    ("CCCc1cc(N2CCN(CCCCn3cc(C#N)c(=O)[nH]c3=O)CC2)nc(C(C)(C)C)n1", "Selectivity D3 vs. D2L*", 51),
    ("CCCc1cc(N2CCN(CCCCn3cc(F)c(=O)[nH]c3=O)CC2)nc(C(C)(C)C)n1", "Selectivity D3 vs. D2L*", 56),
    ("Cc1cn(CCCCN2CCN(c3cccc(Cl)c3Cl)CC2)c(=O)[nH]c1=O", "Selectivity D3 vs. D2L*", 87),
    ("Cc1cn(CCCCN2CCN(c3cc(C(F)(F)F)nc(C(C)(C)C)n3)CC2)c(=O)nc1O.Cl", "Selectivity D3 vs. D2L*", 246),
    ("CCCc1cc(N2CCN(C(C)CCCn3cc(C)c(=O)[nH]c3=O)CC2)nc(C(C)(C)C)n1.Cl (stereo not shown)", "Selectivity D3 vs. D2L*", 103),
    ("CCCc1cc(N2CCN(C(C)CCCn3cc(C)c(=O)[nH]c3=O)CC2)nc(C(C)(C)C)n1 (single isomer, unassigned; (-)) [Example 76]", "Selectivity D3 vs. D2L*", 103),
    ("Cc1cn(CCCCN2CCN(c3cc(C(F)(F)F)cc(C(F)(F)F)c3)CC2)c(=O)[nH]c1=O", "Selectivity D3 vs. D2L*", 63),
    ("CC(C)(C)c1nc(C2CCC2)cc(N2CCN(CCCCn3ccc(=O)[nH]c3=O)CC2)n1", "Selectivity D3 vs. D2L*", 63),
    ("CC(C)(C)c1cc(N2CCN(CCCCn3ccc(=O)[nH]c3=O)CC2)nc(C(C)(C)C)n1", "Selectivity D3 vs. D2L*", 42),
    ("Cc1cn(CCCCN2CCN(c3cc(C4CCC4)nc(C(C)(C)C)n3)CC2)c(=O)nc1O", "Selectivity D3 vs. D2L*", 77),
    ("CCCc1cc(N2CCN(CCCCn3cc(C)c(O)nc3=O)CC2)nc(C(C)(C)C)n1", "Selectivity D3 vs. D2L*", 97),
    ("Cc1cc(C)cc(N2CCN(CCCCn3cc(C)c(=O)[nH]c3=O)CC2)c1", "Selectivity D3 vs. D2L*", 34),
    ("CCCc1cc(N2CCN(CCCCn3cc(CC)c(=O)[nH]c3=O)CC2)nc(C(C)(C)C)n1", "Selectivity D3 vs. D2L*", 63),
]
